# target_of_assay: GST-Rok (full length) (Bacillus subtilis subsp. subtilis str. …, UniProt O34857 1-191)
# Sequence: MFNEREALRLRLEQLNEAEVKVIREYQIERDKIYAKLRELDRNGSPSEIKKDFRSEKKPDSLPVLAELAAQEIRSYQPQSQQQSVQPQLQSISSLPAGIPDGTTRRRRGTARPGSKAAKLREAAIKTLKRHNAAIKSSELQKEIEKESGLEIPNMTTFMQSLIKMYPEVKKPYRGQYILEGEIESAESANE
# assay_details: protein binding microarray; Rok is a gene silencer of Bacillus subtilis; high values mean tight binding
# applied_conditions: protein: recombinant; tags: GST (pTH5325, pDEST15-Magic modified); dsDNA, one strand shown
Over roughly 33,000 sequences, “e-score” has its median near -0.037; the highest 2% begin near 0.34. For the sample, the highest values were picked, then their nearest neighbours and some sequences at random.
Just a reminder that ties go to Not fulfilled: only binding signal strictly below 0.2 E-score counts as Fulfilled.

Sample answers from the record:
| macromolecule_sequence | classification |
| --- | --- |
| CAAAACTG | Fulfilled |
| CAAAACTC | Fulfilled |
| ACAAATTA | Not fulfilled |
| ATAAATTA | Not fulfilled |
| GCAAACTA | Not fulfilled |
| ATAAATTC | Not fulfilled |

Consider `CGTGCGAG` . Does its binding signal lie strictly below 0.2 E-score?
Fulfilled

Field: below-cutoff. Rule: recorded binding signal strictly less than 0.2 E-score. Subject: `ACAAATTG`
Fulfilled

Determine if `CTGAATTA` shows binding signal strictly lower than 0.2 E-score.
Fulfilled

Just wondering, is binding signal of `ATGAATTA` below 0.2 E-score?
Not fulfilled

Criterion: binding signal strictly below 0.2 E-score. Is it met by `AAATATAG` ?
Not fulfilled

Item `GAAACGGC` : binding signal beneath 0.2 E-score, strictly?
Fulfilled

API: query returns whether the sequence falls strictly under 0.2 E-score in binding signal. Query: `TAAAACGA`
Fulfilled

Take the sequence `AATGTATG` and say whether its binding signal is less than 0.2 E-score.
Not fulfilled

Identify whether the sequence `GCAAACAA` records binding signal below 0.2 E-score.
Fulfilled

A record lists `AATGTATA` . Is its binding signal below 0.2 E-score?
Not fulfilled

In the record for `CAATATAA` , is binding signal less than 0.2 E-score?
Not fulfilled

Just wondering, is binding signal of `AAATATAT` below 0.2 E-score?
Not fulfilled

Is the reported binding signal for `CTTAATGC` strictly below 0.2 E-score?
Fulfilled

binding signal under 0.2 E-score? Item: `AGAGGACT`
Fulfilled
